Origin of values: PubChem BioAssay (Tox21)

Target: Androgen receptor (Homo sapiens) (UniProt P10275)
Sequence (P10275 whole entry, looked up): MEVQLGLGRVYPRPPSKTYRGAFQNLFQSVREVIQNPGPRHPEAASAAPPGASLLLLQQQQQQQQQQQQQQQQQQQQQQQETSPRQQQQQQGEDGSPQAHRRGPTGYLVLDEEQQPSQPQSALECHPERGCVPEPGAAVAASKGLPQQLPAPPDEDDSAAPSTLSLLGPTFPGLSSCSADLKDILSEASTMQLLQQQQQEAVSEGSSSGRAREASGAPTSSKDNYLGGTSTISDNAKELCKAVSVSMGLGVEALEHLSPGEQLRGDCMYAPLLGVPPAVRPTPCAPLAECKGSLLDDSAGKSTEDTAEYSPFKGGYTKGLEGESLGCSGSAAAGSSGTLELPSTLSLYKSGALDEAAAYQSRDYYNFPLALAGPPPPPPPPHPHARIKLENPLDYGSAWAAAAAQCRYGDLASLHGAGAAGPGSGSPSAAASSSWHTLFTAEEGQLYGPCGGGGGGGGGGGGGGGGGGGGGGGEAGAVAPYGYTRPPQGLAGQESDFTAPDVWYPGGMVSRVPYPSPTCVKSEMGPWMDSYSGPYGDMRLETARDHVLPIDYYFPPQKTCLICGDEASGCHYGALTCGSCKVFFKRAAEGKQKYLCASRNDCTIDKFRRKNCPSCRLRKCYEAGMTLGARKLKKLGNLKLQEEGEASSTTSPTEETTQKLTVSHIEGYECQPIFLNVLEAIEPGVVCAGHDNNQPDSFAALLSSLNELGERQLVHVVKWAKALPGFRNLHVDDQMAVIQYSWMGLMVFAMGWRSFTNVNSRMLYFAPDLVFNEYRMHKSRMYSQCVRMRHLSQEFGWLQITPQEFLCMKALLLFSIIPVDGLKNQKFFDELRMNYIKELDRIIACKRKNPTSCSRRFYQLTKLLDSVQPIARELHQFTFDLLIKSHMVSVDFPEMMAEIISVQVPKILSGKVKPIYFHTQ
Test: qHTS assay to identify small molecule antagonists of the androgen receptor (AR) signaling pathway (AID 743035)
Settings: HEK293 AR-UAS-bla, R1881-stimulated, beta-lactamase FRET, 16 h; series mostly up to 58.5 µM
Inconclusive results are not listed. The source made the active and inactive calls. Calls follow the shape of the dose curve; as a rule, active = well fitted inhibition curve with a large enough effect in the signal ratio in the repeat runs (not every such curve was filed as active); inconclusive = weak or mixed curves, or effect the other way; inactive = no such curve, though single readings can be large or run the other way; the % refers to the signal ratio.
Form entry, call: pick from True for active, False for inactive

Some entries whose results are on file:
* CC(C)N(Cc1ccccc1)C(=O)C(C)(C)C | False
* COC(=O)c1ccc(CBr)cc1 | False
* Cc1ccc(S(=O)(=O)N[C@@H](CCCCN)C(=O)CCl)cc1 | True
* CCN[C@@H](C)Cc1ccccc1 | False
* N[C@@H]1C[C@H]1c1ccccc1 | False

Tell me the assay call for CCC(C)(C#N)N=NC(C)(C#N)CC (centres undefined) please.
False

Tell me the assay call for CCC1(c2ccccc2)C(=O)N(COC)C(=O)N(COC)C1=O please.
False

Tell me the assay call for C[N+]1(C)CCCCC1 please.
False
